- Method Notes: in vitro
- Type: in vitro ADME
- Recorded Conditions: acidic medium with pepsin, pH 1.2
Where a name gives a salt, the structure may show the parent alone.
Readout Label: metabolised at 1 h (%)

INSERT INTO results (molecule, measure_unit, reported) VALUES
  ('Cc1oc(=O)oc1COC(=O)[C@@H]1N2C(=O)[C@@H](NC(=O)[C@H](N)c3ccccc3)[C@H]2SC1(C)C [A, hydrochloride]', '%', 7);

###

- Method Notes: in vitro
- Format: in vitro ADME
- Recorded Conditions: basic medium with pancreatin, pH 7.5
Where a name gives a salt, the structure may show the parent alone.
Readout Label: metabolised at 1 h

INSERT INTO assay_data (compound, reported) VALUES
  ('Cc1oc(=O)oc1COC(=O)[C@@H]1N2C(=O)[C@@H](NC(=O)[C@H](N)c3ccccc3)[C@H]2SC1(C)C [A, hydrochloride]', '80%'),
  ('CC1(C)S[C@@H]2[C@H](NC(=O)[C@H](N)c3ccccc3)C(=O)N2[C@H]1C(=O)OC1OC(=O)c2ccccc21 (some centres unmarked) [B, hydrochloride]', '100%');

###

- Method Notes: in vitro
- Format: in vitro ADME
- Recorded Conditions: acidic medium with pepsin, pH 1.2
Counter-ions that a name gives are not always drawn.
Readout Label: metabolised at 20 h (%)

INSERT INTO measurements (compound, reported) VALUES
  ('CC1(C)S[C@@H]2[C@H](NC(=O)[C@H](N)c3ccccc3)C(=O)N2[C@H]1C(=O)OC1OC(=O)c2ccccc21 (stereo partly shown) [B, hydrochloride]', 100);
